- experiment.notes: Solubility of the compound in aqueous solutions and in 50% methanol-water at various pH
- Format: physicochemical
- run.conditions: aqueous solution, pH 3.0; read-out: solubility
readout: solubility (mg/mL)
The reply should contain only the number, in mg/mL.

Per the records, this compound ( CN1CCN(C2=Cc3cc(Cl)ccc3Oc3ccccc32)CC1 ) has solubility equal to 15

---

- experiment.notes: Solubility of the compound in aqueous solutions and in 50% methanol-water at various pH
- Assay type: physicochemical
- run.conditions: organic solvent or mixture; 50% methanol-water system, pH 7.0; read-out: solubility
readout: solubility
# include the unit after the value

Per the records, this molecule ( CN1CCN(C2=Cc3cc(Cl)ccc3Oc3ccccc32)CC1 ) has solubility equal to 2000 µg/mL

---

- experiment.notes: Acid hydrolysis / half-life of the compound at various pH and temperature
- Assay type: physicochemical
- run.conditions: 50% methanol-water, pH 1.5, 25° C., pH 1.5, 50% (v/v) methanol-water
readout: half-life
# include the unit after the value

Per the records, this compound ( CN1CCN(C2=Cc3cc(Cl)ccc3Oc3ccccc32)CC1 ) has half-life equal to 7.2 min

---

- experiment.notes: Acid hydrolysis / half-life of the compound at various pH and temperature
- Format: physicochemical
- run.conditions: 50% methanol-water, pH 6, 37° C., pH 6.0
readout: half-life (h)
The reply should contain only the number, in h.

Per the records, this compound ( CN1CCN(C2=Cc3cc(Cl)ccc3Oc3ccccc32)CC1 ) has half-life equal to 159

---

- experiment.notes: Acid hydrolysis / half-life of the compound at various pH and temperature
- Assay type: physicochemical
- run.conditions: 50% methanol-water, pH 6, 25° C., pH 6.0, 50% (v/v) methanol-water
readout: half-life

Per the records, this molecule ( CN1CCN(C2=Cc3cc(Cl)ccc3Oc3ccccc32)CC1 ) has half-life equal to 11.2 days

---

- experiment.notes: Solubility of the compound in aqueous solutions and in 50% methanol-water at various pH
- Format: physicochemical
- run.conditions: aqueous solution, pH 4.3; read-out: solubility
readout: solubility (µg/mL)
The reply should contain only the number, in µg/mL.

Per the records, this molecule ( CN1CCN(C2=Cc3cc(Cl)ccc3Oc3ccccc32)CC1 ) has solubility equal to 4000

---

- experiment.notes: Solubility of the compound in aqueous solutions and in 50% methanol-water at various pH
- Type: physicochemical
- run.conditions: aqueous solution, pH 1.0; read-out: solubility
readout: solubility (mg/mL)
The reply should contain only the number, in mg/mL.

Per the records, this molecule ( CN1CCN(C2=Cc3cc(Cl)ccc3Oc3ccccc32)CC1 ) has solubility equal to 20

---

- experiment.notes: Acid hydrolysis / half-life of the compound at various pH and temperature
- Format: physicochemical
- run.conditions: 50% methanol-water, pH 1.5, 37° C., pH 1.5
readout: half-life (min)
The reply should contain only the number, in min.

Per the records, this compound ( CN1CCN(C2=Cc3cc(Cl)ccc3Oc3ccccc32)CC1 ) has half-life equal to 7.2

Data origin: patent US4180559A
